test system: TRPC4 beta (transient receptor potential cation channel C4), mouse; assay: activators of mouse TRPC4 channel, confirmation, cell-based, Fluo4 calcium, HEK293 TRPC4beta/mu-opioid, duplicates, 10 µM (AID 2426); settings: Fluo4 calcium fluorescence, at 10 µM
Calls of active or inactive are those of the source.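 The calls were made as follows: active = fluorescence ratio normalized to control raised more than 50% in primary screen plus both repeat runs; inactive = the rest.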
Output constraint: value belongs to active, inactive

Study these solved cases before continuing.
- Compound: "CC1CN(c2ccc([N+](=O)[O-])c3cccnc23)CC(C)N1 (stereo unspecified)"
  Answer Label: "active"
- Compound: "CNCCc1nc(N)n[nH]1"
  Answer Label: "active"
- Compound: "CCN(CC)c1ccc(/C=C/[N+](=O)[O-])cc1"
  Answer Label: "active"
- Compound: "COc1ccc(CNCCc2c[nH]c3ccccc23)cc1OC"
  Answer Label: "active"
- Compound: "CN(CCOc1ccc(C=C2C(=O)NC(=O)NC2=O)cc1)c1ccccn1"
  Answer Label: "inactive"

--- query ---
Prompt: I would be grateful if you could indicate the recorded call for `CN(C)C1(CNC(=O)Nc2ccc(Cl)c(Cl)c2)CCCCC1` .
Completion: active
